Every entry's value here was drawn from a melting point compilation (Tetko et al.; mined from patent text by program, amines drawn as free bases though some values may be those of a salt).

observationType: melting point

Past entries and their recorded results:
- molecule: "Nc1cccc2c1Cc1cccc(N)c1C2"
  melting point: "179 °C"
- molecule: "CC(C)(C)c1ccc(/C=C/C(=O)Nc2ccc3c(c2)CCO3)cc1"
  melting point: "175 to 176 °C"
- molecule: "Cc1cc(-c2cc(C(F)(F)F)n3ncc(-c4nc(-c5ccc(N)nc5)no4)c3n2)ccc1Cl"
  melting point: "262 °C"

For each of the items listed, what is its melting point?
1. C#CC[C@]12C=CC(=O)C=C1CC[C@H]1[C@@H]3CCC(=O)[C@@]3(C)CC[C@@H]12
2. O=C(O)CCCCCCCCCCCCCCC(=O)ON1C(=O)c2ccccc2C1=O
3. O=C(CCn1c2ccccc2c2ccccc21)OCCn1c2ccccc2c2ccccc21
4. O=C1Cc2cccc(Nc3ccccc3)c2N1
5. O=[N+]([O-])c1ccc(CNc2cccc(S(=O)(=O)O)c2)cc1
6. CC(C)(C)OC(=O)NCC(=O)NNc1ccc(N)cc1
7. COc1ccc(Br)c2c1C1C(=O)N(C)C(=O)C1CC2 (stereo not given)

1: 200 to 201 °C; 2: 109 to 110 °C; 3: 163 to 165 °C; 4: 166 to 168 °C; 5: > 275 °C; 6: 144 °C; 7: 201 to 202 °C

* * *

observationType: melting point

- compound: "COC(=O)C(Sc1ccc(Cl)cc1)c1ccc(Oc2ccc(Cl)cc2)cc1 (stereo unspecified)"
  experimentalValue: "71 to 75 °C"
- compound: "Nc1cc(C(F)(F)F)cnc1Cl"
  experimentalValue: "94 to 95 °C"
- compound: "CCOC(=O)N1CCN(c2ncnc3c2cnn3Cc2ccncc2)CC1"
  experimentalValue: "123 to 124 °C"

For each of the items listed, what is its melting point?
1. COc1cc(NC(=S)NC(=O)/C=C/c2ccco2)ccc1-c1cc2ccccc2oc1=O
2. Cc1cc(-c2cc(C(F)F)n3nccc3n2)ccc1Cl
3. CSc1ccc(C2(C(C)=O)C=CC=CC2)cc1 (stereo unspecified)

1: 227 to 230 °C; 2: 107 °C; 3: 182 to 184 °C

* * *

observationType: melting point

- molecule: "O=C(O)CCc1cn(Cc2ccc(OCc3ccc(-c4ccccc4)cn3)cc2)cc1-c1ccccc1"
  melting point: "169 to 170 °C"
- molecule: "COc1ccc(-c2[nH]c3ccc(Cl)cc3c2-c2ccc(S(C)(=O)=O)cc2)cc1"
  melting point: "246 to 248 °C"
- molecule: "CCCOC(Nc1ccccc1)(OCCC)c1ccnc(C(=O)c2ccc(Cl)cc2)c1"
  melting point: "140 to 141 °C"
- molecule: "C[C@@H]1CNC[C@H](C)N1c1ncccn1"
  melting point: "130 to 135 °C"
- molecule: "CC1(C)CCC(C)(C)c2cc(-c3cc(-c4ccc(C(=O)N5CCOCC5)cc4)ccc3-c3ccccc3)ccc21"
  melting point: "223 °C"
- molecule: "O=C(c1cccc(C(F)(F)F)c1)c1ncccc1C(O)=NNc1ccc(C(F)(F)F)cc1"
  melting point: "127 to 129 °C"

For each of the items listed, what is its melting point?
1. CS(=O)(=O)Nc1ccc(CCCOCCCCCCNCC(O)c2cc(Cl)c(N)c(Cl)c2)cc1 (centres undefined)
2. Cc1ccccc1NC(=O)NCc1cccc2c1C(=O)N(C1CCC(=O)NC1=O)C2=O (centres undefined)
3. CN1Cc2ccccc2[C@H]2c3cccc4c3c(cn4C)C[C@@H]21 (relative stereo)

["62 to 64 °C", "> 260 °C", "184 to 185 °C"]

* * *

I'd appreciate it if you could supply melting point values for the items below.

Past entries and their recorded results:
- molecule: "CC=CCNc1cc(C(=O)O)cc(S(N)(=O)=O)c1Oc1cccc(NC(C)=O)c1"
  melting point: "198 to 202 °C"
- molecule: "CCOc1ccc2nc(N)c3nc4n(c3c2c1)C(C)COC4 (stereo not given)"
  melting point: "187 to 188 °C"
- molecule: "O=C(O)CN1C(=O)C(Cl)=C(Cl)C1=O"
  melting point: "191 to 192 °C"
- molecule: "COC(=O)C(C)NC(=O)c1cc2cc(Cl)ccc2[nH]1 (single isomer, unassigned; (+))"
  melting point: "199 to 201 °C"

Then this molecule:
Annotate the molecule Cc1nc2c(c(=O)[nH]1)CC(C)C2 (stereo not given) with its measured melting point.
174 to 175 °C

* * *

I'd appreciate it if you could supply melting point values for the items below.

- molecule: "Clc1cccc(N2CCN(CCCOc3ccc4scnc4c3)CC2)c1Cl"
  melting point: "127 to 129 °C"
- molecule: "CCOCC(COCC)Oc1ccc(/C=C/C(=O)O)c(Oc2ncc(C(F)(F)F)cc2Cl)c1"
  melting point: "62 to 63 °C"
- molecule: "O=C(O)/C=C/c1cccc(OCCC(c2ccccc2)(c2ccccc2)c2ccccc2)c1"
  melting point: "104 to 109 °C"
- molecule: "O=c1[nH]c2cc(Cl)ccc2c(=O)c2sccc12"
  melting point: "> 280 °C"
- molecule: "COc1ccc(Cl)cc1C(=O)NCCc1ccc(Sc2ccccc2)c(S(N)(=O)=O)c1"
  melting point: "178 °C"
- molecule: "CCC(CC)c1nc(CN(C)C(=O)N[C@H](C(=O)N[C@@H](Cc2ccccc2)C[C@H](O)[C@H](Cc2ccccc2)NC(=O)OCc2cncs2)C(C)C)cs1"
  melting point: "64 to 66 °C"
- molecule: "N#Cc1ccc(Nc2nc(Cl)nc(Cc3c(Cl)cccc3Cl)n2)cc1"
  melting point: "243 to 244 °C"
- molecule: "CN1CC(N2CC(=O)NC2=O)CC2c3cccc4[nH]cc(c34)CC21 (centres undefined)"
  melting point: "295 to 297 °C"

Annotate the molecule COc1ccc2c(c1)-c1c(OC)ccc3c1C(C2=O)N(C)CC3 (centres undefined) with its measured melting point.
162 to 164 °C

* * *

observationType: melting point

Past entries and their recorded results:
- compound: "COc1cc(-n2nc(C(F)(F)F)cc2-c2ccc(S(C)(=O)=O)cc2)ccc1Br"
  observationType: "melting point"
  experimentalValue: "156 to 157 °C"
- compound: "CC(C)(C)OC(=O)N1C(=O)O[C@@H](c2ccc(F)cc2)[C@H]1Cc1ccc(C(F)(F)F)cc1 (racemic)"
  observationType: "melting point"
  experimentalValue: "155 to 156 °C"
- compound: "CC(=O)OCc1cc2cc(OCc3ccccc3)ccc2n1Cc1ccc(C(C)(C)C)cc1"
  observationType: "melting point"
  experimentalValue: "132 to 133 °C"
- compound: "O=C(O)c1cccc2ccc(-c3ccc([N+](=O)[O-])cc3)nc12"
  observationType: "melting point"
  experimentalValue: "272 to 274 °C"
- compound: "C[C@H](NC(=O)COCCNC(=O)C12CC3CC(CC(C3)C1)C2)C(=O)N[C@H](CCC(=O)O)C(N)=O"
  observationType: "melting point"
  experimentalValue: "84 to 86 °C"
- compound: "COC(=O)CCc1ccc(-n2c(C)c(C)[nH]c2=O)cc1"
  observationType: "melting point"
  experimentalValue: "152 to 154 °C"
- compound: "CCCCCCCC(=O)NCCCCCOS(C)(=O)=O"
  observationType: "melting point"
  experimentalValue: "67 to 68 °C"
- compound: "COc1cc(C2(O)CCN(C(=O)OC(C)(C)C)CC2)ccc1Nc1ncc2ccc(-c3ccccc3N(C)S(C)(=O)=O)n2n1"
  observationType: "melting point"
  experimentalValue: "111 to 112 °C"

Then this compound:
Annotate the compound CCOC(=O)COc1ccc(C(=O)Nc2ccccc2Sc2ccccc2-c2nnn[nH]2)cc1OC with its measured melting point.
179 to 181 °C

* * *

observationType: melting point

Past entries and their recorded results:
- compound: "CCCn1nnn(-c2cc(C)c(Cl)cc2Cl)c1=O"
  melting point: "47 to 48 °C"
- compound: "CN(C)C=CC(=O)c1c[nH]c2ccccc12"
  melting point: "239 to 245 °C"
- compound: "COC(=O)CSc1cc(NC(=S)N2CCCN2)c(F)cc1Cl"
  melting point: "137 to 141 °C"
- compound: "O=C(Nc1nc(-c2ccco2)c(C(=O)C2CCOCC2)s1)c1ccc(Cl)nc1"
  melting point: "233 to 235 °C"
- compound: "CCCC(=O)c1cnc2c(OCCO)cccc2c1Nc1ccccc1C"
  melting point: "125 to 127 °C"

For each of the items listed, what is its melting point?
1. CCc1nc(C(=O)O)c(CC)c(C)c1C(c1cc(F)ccc1F)S(=O)(=O)c1ccc(F)cc1 (stereo unspecified)
2. c1ccc(P(c2ccccc2)c2c3ccccc3cc3ccccc23)cc1
3. CCOC(=O)c1cc(-c2cccc(OC)c2)[nH]c1N

1: 151 to 153 °C; 2: 204 °C; 3: 96 to 97 °C
